Target: T1, human SLC34A2 (human, UniProt O95436 1-690)
T1 construct: whole, on cells; also called human solute carrier 34 A2; NaPi2b
T1 sequence (looked up): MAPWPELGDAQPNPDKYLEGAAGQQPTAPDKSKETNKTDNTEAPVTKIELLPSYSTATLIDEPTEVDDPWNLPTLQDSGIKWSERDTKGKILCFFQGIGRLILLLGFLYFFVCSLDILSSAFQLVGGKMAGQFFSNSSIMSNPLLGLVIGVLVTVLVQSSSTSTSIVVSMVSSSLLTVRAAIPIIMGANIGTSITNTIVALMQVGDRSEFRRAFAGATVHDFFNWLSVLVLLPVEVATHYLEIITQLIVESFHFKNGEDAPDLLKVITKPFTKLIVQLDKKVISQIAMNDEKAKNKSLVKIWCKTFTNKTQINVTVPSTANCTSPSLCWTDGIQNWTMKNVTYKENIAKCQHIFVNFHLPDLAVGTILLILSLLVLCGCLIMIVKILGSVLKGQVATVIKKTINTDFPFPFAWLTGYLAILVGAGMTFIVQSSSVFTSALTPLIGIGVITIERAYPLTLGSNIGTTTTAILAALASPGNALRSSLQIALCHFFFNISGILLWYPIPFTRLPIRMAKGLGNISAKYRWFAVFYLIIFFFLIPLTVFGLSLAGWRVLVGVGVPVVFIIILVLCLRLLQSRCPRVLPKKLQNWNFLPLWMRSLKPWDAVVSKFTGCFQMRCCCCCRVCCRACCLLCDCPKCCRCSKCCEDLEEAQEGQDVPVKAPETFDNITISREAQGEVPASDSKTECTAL
Test: FACS, OVCAR3 cells
measurement.label: Top (MFI)
Numbers only, in MFI.

binder	quantitative.result
63A11D5B4.p1.z6 hIgG1 (antibody, V domains shown, humanized hIgG1) VH: QVQLVQSGAEVKKPGASVKVSCKTSGYTFITYNMHWVRQAPGQGLEWIGAIYPGSGDTSYNQKFKGRVTMTADTSTSTVYMELSSLRSEDTAVYYCSISTIITTGAVDYWGQGTLVTVSS VL: DIQMTQSPSSLSTSVGDRVTITCKASQDVGTAVAWYQQKPGKSPKLLIYWTSTRHTGVPSRFSGSGSGTDFTLIISSLQPEDVATYYCQQYSRIPLTFGGGTKVEIK	34600
63A11D5B4.p1.z15 hIgG1 (antibody, V domains shown, humanized hIgG1) VH: QVQLQQSGAEVVKPGASVKMSCKTSGYTFITYNMHWVKQAPGQGREWIGAIYPGSGDTSYNQKFKGRATLTADKSTSTAYMELSSLRSEDTAVYYCSISTIITTGAVDYWGQGTSVTVSS VL: DIQMTQSPSSLSTSVGDRVTITCKASQDVGTAVAWYQQKPGQSPKLLIYWTSTRHTGVPDRFSGSGSGTDFTLIIRSLQPEDVATYFCQQYSRIPLTFGGGTKVEIK	30200

Moving on to another binder below.
For reference, reported Top (MFI) for 63A11D5B4.p1.z2 hIgG1 (antibody, V domains shown, humanized hIgG1) VH: QVQLVQSGAEVKKPGASVKVSCKASGYTFITYNMHWVRQAPGQGLEWMGAIYPGSGDTSYNQKFKGRVTMTRDTSTSTVYMELSSLRSEDTAVYYCASSTIITTGAVDYWGQGTLVTVSS VL: DIQMTQSPSSLSTSVGDRVTITCKASQDVGTAVAWYQQKPGKSPKLLIYWTSTRHTGVPSRFSGSGSGTDFTLIISSLQPEDVATYYCQQYSRIPLTFGGGTKVEIK stands at 28700
